Assign growth to each entry below.
Test system: UACC-62 melanoma
METHOD_SUMMARY: NCI-60 one-dose screen, 48 h (100 = growth as untreated, 0 = no growth, -100 = all killed)
CONDITION_PARAMETERS: 10 µM unless noted
Compounds without any hit were thinned out: in the full panel of roughly 83,000, 20% have a hit.
Express your answer in %, writing the number without its unit.

// lookup growth for "CCOC(=O)[C@@H](C)C[C@H](Cc1ccccc1)NC(=O)c1csc([C@@H](C[C@H](C(C)C)N(C)C(=O)[C@H](CCC(C)C)NC(=O)[C@H]2CCCCN2C)OC(C)=O)n1"
40.7

Try the compound C[C@@H]1CCC2[C@@H](C)[C@H](OC(=O)CCC(=O)NCCNC(=O)Cc3cc(=O)oc4cc(N(C)C)ccc34)O[C@@H]3O[C@]4(C)CC[C@@H]1C23OO4 (some centres undefined)
31.7

Same thing, different compound: CCCCCCCCC(CO)NCCc1ccccc1 (centres undefined)
98.5

Also, "CN(C)C(=O)Oc1ccc(Br)cc1" please.
113

====

Test system: DU-145 prostate
METHOD_SUMMARY: NCI-60 one-dose screen, 48 h
CONDITION_PARAMETERS: 10 µM unless noted
This is part of a sample that, as a whole, favours compounds with a hit. Of some 83,000 tested, about 20% had one in any assay. Calls of active or inactive are those of the source. Rule for the calls: active = growth percent below 10; inactive = the rest.
Give one outcome, nothing more. List: active, inactive

Fill in: this test's call for "CC1(C)[C@H](O)[C@H](F)C[C@@]2(C)Oc3ccc(C(=O)Nc4ccc5c(c4)NC(=O)C54CCN(CCCCC#N)CC4)cc3C[C@H]12" is ___
inactive

Now consider "CCOC(=O)[C@@H](C)C[C@H](Cc1ccccc1)NC(=O)c1csc([C@@H](C[C@H](C(C)C)N(C)C(=O)[C@@H](NC(=O)[C@H]2CCCCN2C)C(C)(C)C)OC(C)=O)n1" .
active

Entry "COc1ccc(/C(C)=C(\c2ccc(OCCN3CCOCC3)cc2)c2ccc(OC(=O)Cc3ccccc3)cc2)cc1" please
inactive

Try this compound too: "COc1ccc(/C=C/c2cc(OC)c(OC)c(OC)c2)cc1NC(=O)/C=C/c1ccc(F)cc1"
inactive

Likewise for "CC1(C)N=C(N)N=C(N)N1c1ccc(CCCCc2ccc(Cl)c(S(=O)(=O)F)c2)c(Cl)c1" ?
inactive

Can you handle O=C1C2CC=CCC2C(=O)N1SC(Cl)(Cl)Cl (stereo not drawn) next?
inactive

Do the same for "Cc1c2cc(Cl)c3ccccc3c2c[n+]2ccccc12" please
inactive

// query: "COc1ccc(/C=C\c2cc(OC)c(OC)c(OC)c2)cc1OCC(=O)Nc1nc2ccc(OC(F)(F)F)cc2s1"
active

====

Tested on: U251 CNS
METHOD_SUMMARY: NCI-60 one-dose screen, 48 h (100 = growth as untreated, 0 = no growth, -100 = all killed)
CONDITION_PARAMETERS: 10 µM unless noted
This is part of a sample that, as a whole, favours compounds with a hit. Of some 83,000 tested, about 20% had one in any assay.
Consider the following compounds; for each one, report its growth.
Express the result in % but write the number alone.

Sample "CC(=O)O[C@H](C[C@H](C(C)C)N(C)C(=O)[C@@H](NC(=O)[C@H]1CCCCN1C)C(C)C)c1cccc(C(=O)N[C@@H](Cc2ccccc2)C[C@H](C)C(=O)O)n1" — what was its growth?
10.9

Try "Nc1ccc2c(c1)Cc1cc(Br)ccc1-2" next.
104

Please give the result for "CCOC(=O)[C@@H](C)C[C@H](Cc1ccccc1)NC(=O)c1csc([C@@H](C[C@H](C(C)C)N(C)C(=O)[C@@H](NC(=O)[C@H]2CCCCN2C)C(C)(C)C)OC(C)=O)n1" too.
14.7

Same question, CCCCCCCCCCCCNC(c1ccccc1)C(O)c1ccccc1 (configuration not stated) this time
32

"NC(N)=N/N=C\c1c[nH]c2ccc(Br)cc12" ?
32.9

Next up: "CC(=O)Nc1nc2c(s1)CC[C@@]1(C)C2=CC[C@H]2[C@@H]3CC[C@H](O)[C@@]3(C)CC[C@@H]21"
48.5

Now the compound CC(=O)O[C@H](C[C@H](C(C)C)N(C)C(=O)[C@@H](NC(=O)[C@H]1CCCCN1C)C(C)C)c1nc(C(=O)NC2CCC(C(=O)O)CC2)cs1 (some centres not stated)
33.2

Same thing, different compound: CCCCOc1ccc(C(N)Cc2ccccc2)cc1 (configuration not stated)
88.1

Field entry: "CC(=O)O[C@H]1CC[C@H]2[C@@H]3CC=C4c5nc(-c6ccccc6)sc5CC[C@]4(C)[C@H]3CC[C@]12C"
47.5

Entry to check: "O=C1NC(=O)C(=Cc2ccc(OCCCCC3CCCCC3)c(Cl)c2)C(=O)N1"
81.7

Moving on to the next compound: "CC1(C)N=C(N)N=C(N)N1c1ccc(CCCCc2ccc(Cl)c(S(=O)(=O)F)c2)c(Cl)c1"
28.8

Queued: "O=NN1CCCc2cccc(O)c21"
21.9

// repeat for "N/C(=N\N=C\c1ccc(-c2ccccc2)cc1)N[N+](=O)[O-]" and report
31.1

Param item: "N#CCCNc1ccccc1"
103

Follow-up entry: "C#Cc1ccc2c(c1)C(c1ccccc1)=NCC(=O)N2C"
36.9

Proceed to "C/C(=C\c1cc(C(F)(F)F)nn1CCNC(=O)OC(C)(C)C)[C@@H]1C[C@@H]2O[C@]2(C)CCC[C@H](C)[C@H](O)[C@@H](C)C(=O)C(C)(C)[C@@H](O)CC(=O)O1"
61.4

Field entry: "COC(=O)[C@@H](C)C[C@H](Cc1ccccc1)NC(=O)c1csc([C@@H](C[C@H](C(C)C)N(C)C(=O)[C@@H](NC(=O)[C@H]2CCCCN2C)C2CC2)OC(C)=O)n1"
13.6
